Test system: BT-549 breast
Experiment: NCI-60 one-dose screen, 48 h (100 = growth as untreated, 0 = no growth, -100 = all killed)
Conditions: 10 µM unless noted
The panel holds about 83,000 compounds, 20% with a hit somewhere; the sample as a whole holds those more often.
observed_property: growth (%)
Numbers only, in %.

Take a look at these entries with their results.
O=C1CC(c2ccsc2)c2snc(-c3ccc(Cl)cc3)c2N1 (stereo unspecified) | 32.8
CCCN(CCC)c1ccc(/C=C/c2ccc3cc(OCC)ccc3n2)cc1 | 119
CC(C)N1CCN(c2ccc(OC[C@H]3CO[C@](Cn4cncn4)(c4ccc(Cl)cc4Cl)O3)cc2)CC1 | 84.4

For every item below, please supply its growth.
1. O=S(=O)(Nc1ccccc1Cl)c1ccc(-c2cnc(C3CC3)o2)cc1
2. O=C(N/N=C/c1ccc2c(c1)OCO2)c1cnn2c1NC(c1ccccc1)C2 (stereo unspecified)
3. O=C1CN2CCC1C/C2=C\c1ccnc2c(Cl)cccc12 (stereo unspecified)
4. CCC(=O)Nc1nnc(Cc2ccc(OC)c(OC)c2)s1
5. CCCCOC(=O)C1OC(Oc2ccc3c(C)cc(=O)oc3c2)[C@@H](OC(C)=O)C(OC(C)=O)C1OC(C)=O (stereo partly specified)
6. Cc1ccc(S(=O)(=O)c2ccc3[nH]c(=O)[nH]c(=O)c3c2)cc1

49.5
60.6
108
-66.8
103
92.4

---

Test system: HS 578T breast
Assay: NCI-60 one-dose screen, 48 h (100 = growth as untreated, 0 = no growth, -100 = all killed)
Settings: 10 µM unless noted
Compounds without any hit were thinned out: in the full panel of roughly 83,000, 20% have a hit.
Category | rule: reported growth within range, see low group: < 20%; middle group: ≥ 20% and < 80%; high group: ≥ 80%

Solved cases below.
COc1ccc(/C=C(\C#N)c2ccc(OC)cc2)cc1 | high group
COC(=O)[C@H]1CCCN1C(=O)[C@H]1CCCN1C(=O)[C@@H](Cc1c[nH]c2ccccc12)NC(=S)Nc1cc(C(F)(F)F)cc(C(F)(F)F)c1 | low group
COc1nc2c(cc1S(=O)(=O)c1ccccc1)CCc1c-2cnn1-c1ccccc1 | high group
COc1cc2nc(SCc3cc(OC)c(OC)c(OC)c3)n(-c3ccccc3OC)c(=O)c2cc1OC | middle group
C1CCC([PH+](C2CCCCC2)C2CCCCC2[PH+](C2CCCCC2)C2CCCCC2)CC1.[Au].[CH-]1CCCCC1CC1CCCC[N-]1 (stereo not given) | low group
CCCOC(=O)c1ccc2c(c1)[N+](=O)C(C(=O)c1ccccc1)=C(C(F)(F)F)[N+]2=O | low group
O=C1CC(c2ccsc2)c2snc(-c3ccc(Cl)cc3)c2N1 (stereo not given) | middle group
COc1ncc(F)c(OC)n1 | high group

Now let's try a different one.
Which class does COC(=O)c1c2c(c(C)[n+]([O-])c1C)C(=O)C(NCc1ccc(O)cc1)=CC2=O fall in?
low group

---

System: SF-268 CNS
Assay: NCI-60 one-dose screen, 48 h
Conditions: 10 µM unless noted
Compounds without any hit were thinned out: in the full panel of roughly 83,000, 20% have a hit. Active and inactive are the calls of the source. The calls were made as follows: active = growth percent below 10; inactive = the rest.
Pick one: class 1 (active), class 0 (inactive)

Take a look at these entries with their results.
c1ccc(-c2n(Cc3ccc4ccccc4c3)c3ccccc3[n+]2Cc2ccc3ccccc3c2)cc1 | class 1
CC(=O)N(CC(O)CO)c1c(I)c(C(=O)NCCO)c(I)c(C(=O)NCC(O)CO)c1I (stereo not given) | class 0
O=c1onc(-c2ccccc2)c2ccccc12 | class 0
Cc1c(C(=O)Nc2nc(-c3ccccc3)cs2)nnn1-c1ccccc1Br | class 0

Query compound follows.
// param item: Cc1ccc(S(=O)(=O)c2ccc3[nH]c(=O)[nH]c(=O)c3c2)cc1 ; yields the recorded call
class 0
